Attribute: Ki
# subject_of_test: isolated recombinant JAK1 kinase domain (Homo sapiens, UniProt P23458)
# Construct: The activity of the isolated recombinant JAK1 and JAK2 kinase domain was measured
# Sequence (P23458 875-1153 limits assumed): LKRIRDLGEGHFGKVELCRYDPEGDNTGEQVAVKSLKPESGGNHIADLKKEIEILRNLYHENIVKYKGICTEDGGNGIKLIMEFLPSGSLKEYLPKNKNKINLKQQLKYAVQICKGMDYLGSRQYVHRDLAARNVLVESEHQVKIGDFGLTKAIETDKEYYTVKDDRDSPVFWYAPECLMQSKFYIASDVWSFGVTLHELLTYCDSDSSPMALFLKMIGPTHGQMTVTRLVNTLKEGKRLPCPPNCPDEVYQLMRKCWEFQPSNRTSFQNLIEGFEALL
# assay_comment: JAK1 enzyme assay (Caliper LabChip, Ki)
# Assay type: biochemical
# condition_description: recombinant JAK1 kinase domain, 25 μM ATP
Report only the number, with the unit nM understood.

CC(C)Sc1ccc(OC(F)F)c(-c2nn(CC(=O)N3CCN(CC4(C)COC4)CC3)cc2NC(=O)c2cnn3cccnc23)c1 = 0.48
COC(=O)N1CCN(CC2CCN(C(=O)Cn3cc(NC(=O)c4cnn5cccnc45)c(-c4cc(SC(C)C)ccc4OC(F)F)n3)CC2)CC1 = 0.6
O=C(Nc1cn(CCN[C@@H]2CCCOC2)nc1-c1cc(SC2COC2)ccc1OC(F)F)c1cnn2cccnc12 = 1
CC(C)Sc1ccc(OC(F)F)c(-c2nn(CC(=O)N3CCC(N4CCNC(=O)C4)CC3)cc2NC(=O)c2cnn3cccnc23)c1 = 0.37
CSc1ccc(OC(F)F)c(-c2nn(CC(=O)N3CCC(N(C)CC(C)(C)C#N)CC3)cc2NC(=O)c2cnn3cccnc23)c1 = 0.24
CC(C)Sc1ccc(OC(F)F)c(-c2nn(CC(=O)N3CCC(N4CCN(C)CC4)CC3)cc2NC(=O)c2cnn3cccnc23)c1 = 0.6
CC(C)Sc1ccc(OC(F)F)c(-c2nn(CC(=O)N3CCN(C4CCSCC4)CC3)cc2NC(=O)c2cnn3cccnc23)c1 = 0.47
CSc1ccc(OC(F)F)c(-c2nn(CC(=O)N3CCC(NCC(C)(F)F)CC3)cc2NC(=O)c2cnn3cccnc23)c1 = 0.24

Now for the compound whose Ki we want.
Respond only with Ki recorded for `CC(C)Sc1ccc(OC(F)F)c(-c2nn(CC(=O)N3CCN(CCN4CCOCC4)CC3)cc2NC(=O)c2cnn3cccnc23)c1`
0.41
